Sourced from paper PMC7246848

Experiment: Serum pharmacokinetics after single intravenous injection (LC-MS/MS)
Format: in vivo
Conditions: mouse; serum, mice, 1000 mg/kg IV, 5 min after injection
observationType: Cmax

INSERT INTO measurements (linenotation, assayresult) VALUES
  ('NCCC(=O)N[C@@H](Cc1cnc[nH]1)C(=O)O', '4010 µg/mL');

###

Assay: Serum pharmacokinetics after single intravenous injection (LC-MS/MS)
Type: in vivo
Conditions: mouse; serum, mice, 1000 mg/kg IV; read-out: Vss
observationType: Vd (L/kg)

INSERT INTO assay_data (linenotation, assayresult) VALUES
  ('NCCC(=O)N[C@@H](Cc1cnc[nH]1)C(=O)O', 0.223);

###

Assay: Serum pharmacokinetics after single intravenous injection (LC-MS/MS)
Assay type: in vivo
Settings: mouse; serum, mice, 1000 mg/kg IV
Description: Mice were randomly divided into the treatment groups (n = 4~5 mice/group for each time point) and given a single intravenous injection of saline or L-carnosine (1000 mg/kg) or D-carnosine (1000 mg/kg) through the tail vein. Anesthesia was induced by isoflurane inhalation and maintained during intravenous injection. […] Carnosine levels in serum or brain were determined using liquid chromatography tandem-mass spectrometry (LC-MS/MS) as previously described with a slight modification. […]
observationType: clearance (mL/min/kg)

INSERT INTO measurements (linenotation, observationtype, unitssymbol, assayresult) VALUES
  ('NCCC(=O)N[C@@H](Cc1cnc[nH]1)C(=O)O', 'clearance', 'mL/min/kg', 11.1);
